The measured values listed here are drawn from patent US4751295A.

Test system: Cephalothinresistant E. coli (3 strains) and Kl. pneumoniae (2 strains)
PROTOCOL: MIC, two-fold serial agar dilution, group (G-)-Ib
Type: cell-based
EXPERIMENTAL CONDITIONS: Escherichia coli, read-out: Geometric Mean of MIC, (G-)-Ib, Mueller-Hinton agar; 5 strains
Method: In the primary evaluation of the compounds of this invention, the Minimum Inhibitory Concentrations (MIC's) of the compounds were determined by the two-fold serial agar dilution method in Mueller-Hinton agar against 32 strains of test organisms in six groups. (G-)Ib: Cephalothinresistant E. coli (3 strains) and Kl. pneumoniae (2
Task for the reader: assign each of the following molecules its reported MIC.
// units = µg/mL; emit number, no label

Input: Quote MIC reported for CCO/N=C(\C(=O)NC1C(=O)N2C(C(=O)[O-])=C(/C=C/C[n+]3ccc(C(=O)O)cc3)CSC12)c1nsc(N)n1 (stereo not drawn) please.
Output: 0.11

Input: Tell me its MIC given CON=C(C(=O)NC1C(=O)N2C(C(=O)[O-])=C(/C=C/C[n+]3ccc(CO)cc3)CSC12)c1nsc(N)n1 (stereo not drawn) as the entry.
Output: 0.088

Input: Hello, please tell me recorded MIC for this one: CON=C(C(=O)NC1C(=O)N2C(C(=O)[O-])=C(/C=C/C[n+]3cccc(NC=O)c3)CSC12)c1nsc(N)n1 (stereo not drawn)
Output: 0.033

Input: Give MIC for the following molecule: CO/N=C(\C(=O)NC1C(=O)N2C(C(=O)[O-])=C(/C=C/C[n+]3cccc4c3CCC4)CSC12)c1nsc(N)n1 (stereo not drawn)
Output: 0.033

Input: Retrieve MIC measured for CON=C(C(=O)NC1C(=O)N2C(C(=O)[O-])=C(C=CC[n+]3ccc(C(=O)O)cc3)CSC12)c1nsc(N)n1 (stereo not drawn) and print it.
Output: 0.066

Input: Please give measured MIC of the following entry: CON=C(C(=O)NC1C(=O)N2C(C(=O)[O-])=C(/C=C/C[n+]3cccc(N)c3)CSC12)c1nsc(N)n1 (stereo not drawn)
Output: 0.029

Input: Determine from records and report MIC for NC(=O)c1cc[n+](C/C=C/C2=C(C(=O)[O-])N3C(=O)C(NC(=O)C(=NOC4CCCC4)c4nsc(N)n4)C3SC2)cc1 (stereo not drawn)
Output: 0.46

Input: Please indicate MIC recorded for CCO/N=C(\C(=O)NC1C(=O)N2C(C(=O)[O-])=C(/C=C\C[n+]3ccc(C(=O)O)cc3)CSC12)c1nsc(N)n1 (stereo not drawn)
Output: 0.15

Input: Name the recorded MIC of the item CON=C(C(=O)NC1C(=O)N2C(C(=O)[O-])=C(/C=C/C[n+]3ccsc3C)CSC12)c1nsc(N)n1 (stereo not drawn) in your answer.
Output: 0.076

* * *

Test system: Cephalothinsensitive E. coli (2 strains), Kl. pneumoniae (1 strain) and Pr. mirabilis (2 strains)
PROTOCOL: MIC, two-fold serial agar dilution, group (G-)-Ia
Type: cell-based
EXPERIMENTAL CONDITIONS: Mueller-Hinton agar; 5 strains; read-out: Geometric Mean of MIC, (G-)-Ia
Description: In the primary evaluation of the compounds of this invention, the Minimum Inhibitory Concentrations (MIC's) of the compounds were determined by the two-fold serial agar dilution method in Mueller-Hinton agar against 32 strains of test organisms in six groups. (G+)Ia: Cephalothinsensitive E. coli (2 strains), Kl. pneumoniae (1 strain) and Pr. mirabilis (2 strains)
PROPERTY MEASURED: log10 of MIC (log10 of the value in µg/mL)
Log scale reminder: MIC in µg/mL, then log10 taken.

Input: Check the records and state log10 of MIC for CON=C(C(=O)NC1C(=O)N2C(C(=O)[O-])=C(/C=C/C[n+]3cccc(CN)c3)CSC12)c1nsc(N)n1 (stereo not drawn)
Output: -1.00

Input: Report log10 of MIC for CON=C(C(=O)NC1C(=O)N2C(C(=O)[O-])=C(/C=C/C[n+]3cccc(NC=O)c3)CSC12)c1nsc(N)n1 (stereo not drawn)
Output: -2.03

Input: Specify log10 of MIC for C=CCON=C(C(=O)NC1C(=O)N2C(C(=O)[O-])=C(/C=C/C[n+]3ccc(C(N)=O)cc3)CSC12)c1nsc(N)n1 (stereo not drawn) and stop.
Output: -1.24

Input: Using known records, supply log10 of MIC for CON=C(C(=O)NC1C(=O)N2C(C(=O)[O-])=C(/C=C/C[n+]3ccc(C(N)=O)cc3)CSC12)c1nsc(N)n1 (stereo not drawn)
Output: -1.89

Input: Annotate the molecule CON=C(C(=O)NC1C(=O)N2C(C(=O)[O-])=C(/C=C/C[n+]3cccc(N)c3)CSC12)c1nsc(N)n1 (stereo not drawn) with its measured log10 of MIC.
Output: -2.03

Input: Give the value of log10 of MIC reported for the following: C#CCON=C(C(=O)NC1C(=O)N2C(C(=O)[O-])=C(/C=C/C[n+]3ccc(C(N)=O)cc3)CSC12)c1nsc(N)n1 (stereo not drawn)
Output: -1.18

* * *

PROTOCOL: solubility of crystalline zwitterion in saline
Type: physicochemical
EXPERIMENTAL CONDITIONS: crystalline zwitterion form, in saline at 23° C.
PROPERTY MEASURED: solubility (µg/mL)
# value in µg/mL; strip the unit string

Input: Indicate the recorded solubility value for this molecule: CON=C(C(=O)NC1C(=O)N2C(C(=O)[O-])=C(/C=C/C[n+]3ccc(C(N)=O)cc3)CSC12)c1nsc(N)n1 (stereo not shown)
Output: 6000

* * *

For each record, write down the corresponding Cmax.
PROTOCOL: blood levels upon intramuscular administration to mice
Type: in vivo
EXPERIMENTAL CONDITIONS: mouse, im, 20 mg/kg
Output spec: scalar in ng/mL, unitless text.

Input: Consider the compound CON=C(C(=O)NC1C(=O)N2C(C(=O)[O-])=C(/C=C/C[n+]3ccsc3C)CSC12)c1nsc(N)n1 (stereo not shown) and give its recorded Cmax.
Output: 19000

Input: Look up and state reported Cmax for C=CCON=C(C(=O)NC1C(=O)N2C(C(=O)[O-])=C(/C=C/C[n+]3ccc(C(N)=O)cc3)CSC12)c1nsc(N)n1 (stereo not shown)
Output: 19000

Input: Look up and state reported Cmax for CCO/N=C(\C(=O)NC1C(=O)N2C(C(=O)[O-])=C(C=CC[n+]3ccc(C(=O)O)cc3)CSC12)c1nsc(N)n1 (stereo not shown)
Output: 22000

Input: Tell me Cmax reported for CON=C(C(=O)NC1C(=O)N2C(C(=O)[O-])=C(C=CC[n+]3ccc(C(=O)O)cc3)CSC12)c1nsc(N)n1 (stereo not shown)
Output: 24000

* * *

Tested on: Cephalothinresistant E. coli (3 strains) and Kl. pneumoniae (2 strains)
PROTOCOL: MIC, two-fold serial agar dilution, group (G-)-Ib
Type: cell-based
EXPERIMENTAL CONDITIONS: Escherichia coli, read-out: Geometric Mean of MIC, (G-)-Ib, Mueller-Hinton agar; 5 strains
PROPERTY MEASURED: MIC

Input: Fill in: MIC on Cephalothinresistant E. coli (3 strains) and Kl. pneumoniae (2 strains), entry C#CCON=C(C(=O)NC1C(=O)N2C(C(=O)[O-])=C(/C=C/C[n+]3ccc(C(N)=O)cc3)CSC12)c1nsc(N)n1 (stereo not drawn)
Output: 0.11 mg/L

Input: Report value: MIC, system: Cephalothinresistant E. coli (3 strains) and Kl. pneumoniae (2 strains), compound: CON=C(C(=O)NC1C(=O)N2C(C(=O)[O-])=C(/C=C/C[n+]3ccc(SCC(=O)O)cc3)CSC12)c1nsc(N)n1 (stereo not drawn)
Output: 0.044 mg/L

Input: Answer with MIC of CON=C(C(=O)NC1C(=O)N2C(C(=O)[O-])=C(/C=C/C[n+]3cccc(CO)c3)CSC12)c1nsc(N)n1 (stereo not drawn) measured for Cephalothinresistant E. coli (3 strains) and Kl. pneumoniae (2 strains).
Output: 0.044 mg/L

Input: With Cephalothinresistant E. coli (3 strains) and Kl. pneumoniae (2 strains) as the test system, provide measured MIC for this compound: CON=C(C(=O)NC1C(=O)N2C(C(=O)[O-])=C(/C=C/C[n+]3cccc(C(N)=O)c3)CSC12)c1nsc(N)n1 (stereo not drawn)
Output: 0.033 mg/L

Input: Please report MIC with Cephalothinresistant E. coli (3 strains) and Kl. pneumoniae (2 strains) for item C=CCON=C(C(=O)NC1C(=O)N2C(C(=O)[O-])=C(/C=C/C[n+]3ccc(C(N)=O)cc3)CSC12)c1nsc(N)n1 (stereo not drawn) .
Output: 0.1 mg/L

Input: Find the measured MIC of CON=C(C(=O)NC1C(=O)N2C(C(=O)[O-])=C(/C=C/C[n+]3ccc(C(N)=O)cc3)CSC12)c1nsc(N)n1 (stereo not drawn) with Cephalothinresistant E. coli (3 strains) and Kl. pneumoniae (2 strains) as test system.
Output: 0.043 mg/L

* * *

Exercise: state measured MIC for each of the compounds provided.
System: Penicillinresistant S. aureus (5 strains)
PROTOCOL: MIC, two-fold serial agar dilution, group (G+)-Ib
Format: cell-based
EXPERIMENTAL CONDITIONS: Staphylococcus aureus, Mueller-Hinton agar; 5 strains; read-out: Geometric Mean of MIC, (G+)-Ib
Write down the numeric answer in µg/mL and omit the unit.

Input: Supply measured MIC of CCON=C(C(=O)NC1C(=O)N2C(C(=O)[O-])=C(/C=C/C[n+]3ccc(C(N)=O)cc3)CSC12)c1nsc(N)n1 (stereo not shown) in your reply.
Output: 0.4

Input: Give the reported MIC for this compound. CCO/N=C(\C(=O)NC1C(=O)N2C(C(=O)[O-])=C(/C=C/C[n+]3ccc(C(=O)O)cc3)CSC12)c1nsc(N)n1 (stereo not shown)
Output: 2.1

Input: Identify measured MIC associated with CON=C(C(=O)NC1C(=O)N2C(C(=O)[O-])=C(/C=C/C[n+]3cccc(CC(=O)O)c3)CSC12)c1nsc(N)n1 (stereo not shown)
Output: 1.6

Input: Give reported MIC value for CON=C(C(=O)NC1C(=O)N2C(C(=O)[O-])=C(/C=C/C[n+]3cccc(N)c3)CSC12)c1nsc(N)n1 (stereo not shown)
Output: 0.4
